Data origin, for the record: patent US20160114035A1

- target: DRB1*1501
- method description: binding to purified HLA
binders and their reported IC50
parameter: IC50 (nM)

- binder: "AAAEFVAAWTLHAAA [E4.H12]"
  parameter: "IC50"
  readout number: 51
- binder: "AAAEFVAAYTLHAAA [E4.Y9.H12]"
  parameter: "IC50"
  readout number: 6.9
- binder: "AAAHFVAAFTLKAEA [H4.F9.E14]"
  parameter: "IC50"
  readout number: 31
- binder: "AAAHFVAANTLHAAA [H4.N9.H12]"
  parameter: "IC50"
  readout number: 79
- binder: "AAANFVAAYTLHAAA [N4.Y9.H12]"
  parameter: "IC50"
  readout number: 4.2
